# Test system: TnI
# experimental details: Assays utilizing various SSIA in TnI assay
# Type: biochemical
# conditions used: calibrator S6; SSIA final concentration 125 uM
measured parameter: Signal/Noise S6/S0
// no unit, no text: just the number

Observe how each entry below is paired with its result.
Nc1ccccc1O = 1604.7
Nc1cc(C[C@H](N)C(=O)O)ccc1O = 2268.7
Cc1c(C)c2c(c(C)c1O)CCC(C)(C(=O)O)O2 (stereo not shown) = 2713.1

Q. Param readout= Signal/Noise S6/S0; system= TnI; entry= O=C1O[C@H]([C@@H](O)CO)C(O)=C1O ; returns value.
A. 2196.3

###

# Tested on: TnI
# experimental details: Assays utilizing various SSIA in TnI assay
# Format: biochemical
# conditions used: calibrator S6; SSIA final concentration 250 uM
Signal/Noise S6/S0 for assorted molecules
// no unit, no text: just the number

Observe how each entry below is paired with its result.
Cc1c(C)c2c(c(C)c1O)CCC(C)(C(=O)O)O2 (stereo not shown) = 2334.5
O=C1O[C@H]([C@@H](O)CO)C(O)=C1O = 1511.1
Nc1cc(C[C@H](N)C(=O)O)ccc1O = 1772.4

Let's switch to this molecule now.
Q. Report Signal/Noise S6/S0 for Nc1ccccc1O please.
A. 739.1

###

# System: TnI
# experimental details: Assays utilizing various SSIA in TnI assay
# Format: biochemical
# conditions used: calibrator S1; SSIA final concentration 125 uM
Signal/Noise S1/S0 for assorted compounds

Observe how each entry below is paired with its result.
Cc1c(C)c2c(c(C)c1O)CCC(C)(C(=O)O)O2 (stereo not shown) = 1.6
Nc1cc(C[C@H](N)C(=O)O)ccc1O = 1.5
Nc1ccccc1O = 1.4

Let's switch to this compound now.
Q. Report Signal/Noise S1/S0 for O=C1O[C@H]([C@@H](O)CO)C(O)=C1O please.
A. 1.4

###

Signal/Noise S5/S0 for assorted molecules
# Tested on: TnI
# experimental details: Assays utilizing various SSIA in TnI assay
# Format: biochemical
# conditions used: calibrator S5; SSIA final concentration 125 uM
// no unit, no text: just the number

Cc1c(C)c2c(c(C)c1O)CCC(C)(C(=O)O)O2 (stereo not shown) = 302.0
Nc1ccccc1O = 183.7
Nc1cc(C[C@H](N)C(=O)O)ccc1O = 234.8

Q. Report Signal/Noise S5/S0 for O=C1O[C@H]([C@@H](O)CO)C(O)=C1O please.
A. 228.0

###

# Test system: TnI
# experimental details: Assays utilizing various SSIA in TnI assay
# Format: biochemical
# conditions used: calibrator S3; SSIA final concentration 250 uM
measured parameter: Signal/Noise S3/S0
// no unit, no text: just the number

Observe how each entry below is paired with its result.
Nc1cc(C[C@H](N)C(=O)O)ccc1O = 8.1
O=C1O[C@H]([C@@H](O)CO)C(O)=C1O = 8.2
Nc1ccccc1O = 4.5

Let's switch to this compound now.
Q. Report Signal/Noise S3/S0 for Cc1c(C)c2c(c(C)c1O)CCC(C)(C(=O)O)O2 (stereo not shown) please.
A. 12.8

###

light intensity, BTN-HRP10 for assorted compounds
# System: biotinylated HRP
# experimental details: Model system for selection of SSIA (AK1/streptavidin BSA microparticles + biotinylated HRP)
# Assay type: biochemical, horseradish
# conditions used: Btn-HRP 10 ng/mL, total HRP 500 ng/mL; SSIA 100 μM final
# Description: The model system uses a microparticle conjugated to BSA (bovine serum albumin) labeled with a […] and acridan ketenedithioacetal chemiluminescent label (AK1) as the chemiluminescent-labeled sbp, and biotinylated HRP as the activator-labeled specific binding pair. In the model system, varying amounts of Btn-HRP is added to the chemiluminescent-labeled specific binding pair at 0, 1, 10, 100 and 250 ng/mL. […]

Observe how each entry below is paired with its result.
O=c1[nH]c(=O)c2[nH]c(=O)[nH]c2[nH]1 = 1,025,209
CCCCCCCCCCCCCCCC(=O)OC[C@H](O)[C@H]1OC(=O)C(O)=C1O [Ascorbic Acid 6-palmitate] = 40,863
COc1ccc2[nH]cc(CCNC(C)=O)c2c1 = 2,381,361
O=C(O)CCCC[C@@H]1CCSS1 (racemic) = 2,450,949
CC1(C)OC[C@@H]([C@H]2OC(=O)C(O)=C2O)O1 = 29,645

Q. Report light intensity, BTN-HRP10 for Cl.Nc1ccc(O)cc1O [4-aminoresorcinol hydrochloride] please.
A. 74,764

Q. Report light intensity, BTN-HRP10 for N[C@@H](CCC(=O)N[C@@H](CS)C(=O)NCC(=O)O)C(=O)O please.
A. 2,480,764

Q. Report light intensity, BTN-HRP10 for N[C@@H](CS)C(=O)O please.
A. 2,483,411

Q. Report light intensity, BTN-HRP10 for CC(=O)N[C@@H](CS)C(=O)O please.
A. 1,757,607

Q. Report light intensity, BTN-HRP10 for Oc1ccc(Cl)cc1O please.
A. 1,373

Q. Report light intensity, BTN-HRP10 for CC1(C)CC(O)CC(C)(C)N1[O] please.
A. 1,963,369

Q. Report light intensity, BTN-HRP10 for O=C(O)c1cccnc1 please.
A. 2,228,317

Q. Report light intensity, BTN-HRP10 for COc1cc(/C=C/C(=O)O)ccc1O please.
A. 715,313

Q. Report light intensity, BTN-HRP10 for Oc1ccc(C=Cc2cc(O)cc(O)c2)cc1 please.
A. 1,073,968

###

# Tested on: TnI
# experimental details: Assays utilizing various SSIA in TnI assay
# Type: biochemical
# conditions used: calibrator S5; SSIA final concentration 500 uM
measured parameter: Signal/Noise S5/S0
// no unit, no text: just the number

Observe how each entry below is paired with its result.
Nc1ccccc1O [2-amino phenol, 2-aminophenol] = 52.5
Cc1c(C)c2c(c(C)c1O)CCC(C)(C(=O)O)O2 (stereo not shown) [Trolox ®] = 192.0
O=C1O[C@H]([C@@H](O)CO)C(O)=C1O [Ascorbic Acid] = 87.5

Let's switch to this compound now.
Q. Report Signal/Noise S5/S0 for Nc1cc(C[C@H](N)C(=O)O)ccc1O [3-Amino Tyrosine] please.
A. 118.6

###

light intensity, BTN-HRP0 for assorted compounds
# Tested on: biotinylated HRP
# experimental details: Model system for selection of SSIA (AK1/streptavidin BSA microparticles + biotinylated HRP)
# Type: biochemical, horseradish
# conditions used: Btn-HRP 0 ng/mL, total HRP 500 ng/mL; SSIA 100 μM final

N[C@@H](CCC(=O)N[C@@H](CS)C(=O)NCC(=O)O)C(=O)O [Glutathione] = 26,977
Cl.Nc1ccc(O)cc1O [4-aminoresorcinol hydrochloride] = 675
N[C@@H](CS)C(=O)O [Cysteine] = 35,695
COc1ccc2[nH]cc(CCNC(C)=O)c2c1 [Melatonin] = 54,528

Q. Report light intensity, BTN-HRP0 for O=c1[nH]c(=O)c2[nH]c(=O)[nH]c2[nH]1 [Uric Acid] please.
A. 5,532

Q. Report light intensity, BTN-HRP0 for O=C(O)CCCC[C@@H]1CCSS1 (racemic) [Lipoic Acid] please.
A. 35,016

Q. Report light intensity, BTN-HRP0 for O=C(O)c1cccnc1 [Nicotinic Acid] please.
A. 34,369

Q. Report light intensity, BTN-HRP0 for Nc1ccccc1O [2-amino phenol, 2-aminophenol] please.
A. 65

Q. Report light intensity, BTN-HRP0 for CC1(C)CC(O)CC(C)(C)N1[O] [TEMPOL] please.
A. 22,621

Q. Report light intensity, BTN-HRP0 for Oc1ccc(C=Cc2cc(O)cc(O)c2)cc1 [Resveratrol] please.
A. 64,051

Q. Report light intensity, BTN-HRP0 for COc1cc(/C=C/C(=O)O)ccc1O [Ferulic acid] please.
A. 5,252

Q. Report light intensity, BTN-HRP0 for Cc1c(O)cc2c(c1C)O[C@](C)(CCC[C@H](C)CCC[C@H](C)CCCC(C)C)CC2 [(+)-gamma-Tocopherol] please.
A. 6,051

###

# System: biotinylated HRP
# experimental details: Model system for selection of SSIA (AK1/streptavidin BSA microparticles + biotinylated HRP)
# Assay type: biochemical, horseradish
# conditions used: Btn-HRP 10 ng/mL, total HRP 500 ng/mL; SSIA 100 μM final
measured parameter: light intensity, BTN-HRP10

Observe how each entry below is paired with its result.
Nc1ccc(C(=O)O)cc1O [4-Amino-3-hydroxy-benzoic acid] = 441,455
Cc1c(C)c2c(c(C)c1O)CCC(C)(C(=O)O)O2 (stereo not shown) = 37,291
Nc1ccccc1O = 8,632
Oc1ccc(O)c(Cl)c1 [2-chloro-1,4-dihydroxybenzene] = 188,920
Cc1c(O)cc2c(c1C)O[C@](C)(CCC[C@H](C)CCC[C@H](C)CCCC(C)C)CC2 [(+)-gamma-Tocopherol] = 1,686,079

Q. Report light intensity, BTN-HRP10 for NNC(=O)c1cccnc1 [Nicotinic Hydrazide] please.
A. 2,106,471

Q. Report light intensity, BTN-HRP10 for COc1cc(C(=O)O)cc(OC)c1O please.
A. 939,372
